- Tested on: corn (Zea mays)
- test_method_notes: Test A postemergence corn
- Format: in vivo
- measurement_parameters: 500 g ai/ha, 0 to 100 scale, 0 is no effect, 100 is complete control
metric_name: Plant response rating, Corn
One number for each entry.

# molecule, Plant response rating, Corn
records = [
    ("O=C1NCCC(c2cccc(C(F)(F)F)c2)C1C(=O)Nc1cccc(F)c1Cl (racemic)", 50),
    ("O=C1NCCC(c2cccc(Cl)c2)C1C(=O)Nc1ccccc1C(F)(F)F (racemic)", 0),
    ("O=C1NCC[C@@H](c2cccc(Cl)c2)[C@@H]1C(=O)Nc1cccc(F)c1F", 0),
]

# next molecule below
[ask] Query (molecule): O=C1NCCC(c2ccccc2)C1C(=O)Nc1ccccc1F (racemic) ; field requested: Plant response rating, Corn
[reply] 0

---

- Test system: morningglory (Ipomoea spp.)
- test_method_notes: Test A postemergence morningglory
- Format: in vivo
- measurement_parameters: 500 g ai/ha, 0 to 100 scale, 0 is no effect, 100 is complete control
- From the text: […]
Consider the following compounds; for each one, report its Plant response rating, Morningglory.

Give Plant response rating, Morningglory for each listed item.
1. O=C1NCCC(c2ccc(F)c(F)c2)C1C(=O)Nc1ccccc1C(F)(F)F (racemic)
2. O=C1NCCC(c2ccc(F)cc2)C1C(=O)Nc1ccccc1C(F)(F)F (racemic)
3. O=C1NCCC(c2cccc(C(F)(F)F)c2)C1C(=O)Nc1ccccc1C(F)(F)F (centres unmarked)
4. O=C1NCCC(c2cccc(C(F)(F)F)c2)C1C(=O)Nc1cccc(F)c1F (centres unmarked)

[reply]
0
0
0
40

Quick batch: Plant response rating, Morningglory for everything below.
1. O=C1NCCC(c2ccccc2)C1C(=O)Nc1ccccc1C(F)(F)F (racemic)
2. O=C1NCCC(c2ccccc2)C1C(=O)Nc1ccccc1F (racemic)
3. O=C1NCCC(c2ccc(F)cc2)C1C(=O)Nc1ccccc1F (racemic)
4. O=C1NCCC(c2ccc(F)c(F)c2)C1C(=O)Nc1ccccc1F (racemic)

[reply]
1. 0
2. 0
3. 0
4. 0

---

Provide the reported pest or weed control at 500 g/ha of each item.
- System: pigweed (Amaranthus retroflexus)
- test_method_notes: Test A preemergence pigweed
- Type: in vivo
- measurement_parameters: Amaranthus retroflexus, pre-emergence, 240 h, 500 g ai/ha, 0 to 100 scale, 0 no effect, 100 complete control, read-out: Pigweed plant response rating
Numbers only, in %.

Observe how each entry below is paired with its result.
# compound, uom, pest or weed control at 500 g/ha
records = [
    ("O=C1NCCC(c2ccc(C(F)(F)F)cc2)C1C(=O)Nc1cccc(F)c1F (centres unmarked)", "%", 40),
    ("O=C1NCCC(c2cccc(C(F)(F)F)c2)C1C(=O)Nc1ccccc1C(F)(F)F (centres unmarked)", "%", 0),
]

Quick one: give me pest or weed control at 500 g/ha for each item below, same order please.
1. O=C1NCCC(c2cccc(Cl)c2)C1C(=O)Nc1cccc(F)c1F (centres unmarked)
2. O=C1NCCC(c2cccc(C(F)F)c2)C1C(=O)Nc1cccc(F)c1F (centres unmarked)
3. O=C1NCCC(c2cccc(C(F)(F)F)c2)C1C(=O)Nc1ccc(F)c(F)c1F (centres unmarked)
4. CN1CC[C@H](c2ccc(F)cc2)[C@@H](C(=O)Nc2ccccc2C(F)(F)F)C1=O
5. O=C1NCCC(c2cccc(C(F)(F)F)c2)C1C(=O)Nc1cccc(F)c1F (centres unmarked)
6. O=C1NCC[C@H](c2cccc(C(F)(F)F)c2)[C@H]1C(=O)Nc1cccc(Cl)c1F

[reply]
1: 0; 2: 0; 3: 0; 4: 50; 5: 0; 6: 0

---

Could you please report measured Pigweed plant response rating for the items listed next?
- Test system: pigweed (Amaranthus retroflexus)
- test_method_notes: Test A preemergence pigweed
- Type: in vivo
- measurement_parameters: 500 g ai/ha, 0 to 100 scale, 0 no effect, 100 complete control
Give bare numbers.

# molecule, measured_result
rows = [
    ("O=C1NCCC(c2cccc(C(F)(F)F)c2)C1C(=O)Nc1ccc(F)cc1F (racemic) [Compound 27]", 0),
    ("O=C1NCCC(c2ccccc2C(F)(F)F)C1C(=O)Nc1cccc(F)c1F (racemic) [Compound 8]", 0),
    ("O=C1NCCC(c2ccc(C(F)(F)F)cc2)C1C(=O)Nc1cccc(F)c1Cl (racemic) [Compound 15]", 0),
]

Respectfully, I request Pigweed plant response rating for each entry included below.
1. O=C1NCCC(c2cccc(OC(F)(F)F)c2)C1C(=O)Nc1cccc(F)c1F (racemic) [Compound 39]
2. O=C1NCCC(c2ccc(F)cc2)C1C(=O)Nc1ccccc1F (racemic) [Compound 5]
3. O=C1NCCC(c2cccc(C(F)F)c2)C1C(=O)Nc1ccc(F)c(F)c1F (centres unmarked) [Compound 47]
4. O=C1NCC[C@@H](c2cccc(Cl)c2)[C@@H]1C(=O)Nc1cccc(F)c1F [Compound 43]
5. O=C1NCCC(c2cccc(Cl)c2)C1C(=O)Nc1ccccc1C(F)(F)F (racemic) [Compound 33]

[reply]
[10, 0, 0, 0, 0]

---

- System: wheat (Triticum aestivum)
- test_method_notes: Test A preemergence wheat
- Type: in vivo
- measurement_parameters: 500 g ai/ha, 0 to 100 scale, 0 no effect, 100 complete control
Could you please report measured Wheat plant response rating for the items listed next?
Numbers only.

Past entries and their recorded results:
# compound, system_under_test, Wheat plant response rating
records = [
    ("O=C1NCCC(c2ccc(F)c(F)c2)C1C(=O)Nc1ccccc1C(F)(F)F (racemic) [Compound 6]", "wheat (Triticum aestivum)", 0),
    ("O=C1NCCC(c2ccccc2)C1C(=O)Nc1ccccc1F (racemic) [Compound 3]", "wheat (Triticum aestivum)", 20),
    ("O=C1NCCC(c2ccccc2)C1C(=O)Nc1ccccc1C(F)(F)F (racemic) [Compound 2]", "wheat (Triticum aestivum)", 0),
    ("O=C1NCCC(c2ccc(F)cc2)C1C(=O)Nc1ccccc1F (racemic) [Compound 5]", "wheat (Triticum aestivum)", 0),
    ("O=C1NCCC(c2ccc(F)cc2)C1C(=O)Nc1ccccc1C(F)(F)F (racemic) [Compound 4]", "wheat (Triticum aestivum)", 0),
    ("O=C1NCCC(c2cccc(C(F)(F)F)c2)C1C(=O)Nc1ccccc1C(F)(F)F (centres unmarked) [Compound 10]", "wheat (Triticum aestivum)", 0),
    ("O=C1NCCC(c2cccc(C(F)(F)F)c2)C1C(=O)Nc1cccc(F)c1F (centres unmarked) [Compound 9]", "wheat (Triticum aestivum)", 50),
]

[ask] What value of measured Wheat plant response rating is listed for O=C1NCCC(c2ccc(F)c(F)c2)C1C(=O)Nc1ccccc1F (racemic) [Compound 1] ?
[reply] 0

---

- Tested on: corn (Zea mays)
- test_method_notes: Test A postemergence corn
- Assay type: in vivo
- measurement_parameters: 500 g ai/ha, 0 to 100 scale, 0 is no effect, 100 is complete control
metric_name: Plant response rating, Corn
Numbers only.

Use these answered entries as a reference point.
# molecule, measured_result
data = [
    ("CS(=O)(=O)c1ccccc1NC(=O)C1C(=O)NCCC1c1cccc(C(F)(F)F)c1 (racemic)", 30),
    ("O=C1NCCC(c2cccc(OC(F)F)c2)C1C(=O)Nc1cccc(F)c1F (racemic)", 50),
]

Go through the items and report each one's Plant response rating, Corn.
1. O=C1NCCC(c2cccc(Cl)c2)C1C(=O)Nc1ccccc1F (racemic)
2. O=C1NCCC(c2cccc(C(F)F)c2)C1C(=O)Nc1ccc(F)c(F)c1F (stereo not shown)

[reply]
0
0

---

- Tested on: ryegrass, Italian (Italian ryegrass, Lolium multiflorum)
- test_method_notes: Test A postemergence ryegrass, Italian
- Type: in vivo
- measurement_parameters: 500 g ai/ha, 0 to 100 scale, 0 is no effect, 100 is complete control
metric_name: Plant response rating, Ryegrass, Italian
Numbers only.

Batch lookup, Plant response rating, Ryegrass, Italian per entry.
1. O=C1NCCC(c2cccc(C(F)(F)F)c2)C1C(=O)Nc1ccc(F)cc1F (racemic)
2. O=C(Nc1ccccc1C(F)(F)F)C1C(=O)N(C2CC2)CCC1c1ccc(F)cc1 (stereo not shown)
3. O=C1NCCC(c2cccc(Cl)c2)C1C(=O)Nc1ccccc1F (racemic)
4. O=C1NCCC(c2ccccc2C(F)(F)F)C1C(=O)Nc1cccc(F)c1F (racemic)
5. O=C1NCCC(c2cccc(OC(F)F)c2)C1C(=O)Nc1ccc(F)c(F)c1F (racemic)
6. O=C1NCCC(c2cccc(OC(F)(F)F)c2)C1C(=O)Nc1ccccc1F (racemic)
7. O=C1NCCC(c2cccc(C(F)F)c2)C1C(=O)Nc1ccc(F)c(F)c1F (stereo not shown)
8. O=C1NCCC(c2cccc(OC(F)(F)F)c2)C1C(=O)Nc1ccccc1C(F)(F)F (racemic)

[reply]
1: 0; 2: 0; 3: 0; 4: 0; 5: 20; 6: 20; 7: 20; 8: 0

Dear reader, for each entry below, please note its Plant response rating, Ryegrass, Italian.
1. O=C1NCCC(c2cccc(C(F)F)c2)C1C(=O)Nc1ccccc1F (stereo not shown)
2. O=C1NCCC(c2cccc(C(F)(F)F)c2)C1C(=O)Nc1cccc(F)c1Cl (racemic)

[reply]
[0, 20]
